Tested on: SW-620
experimental.protocol: NCI tumour cell line growth inhibition, 48 h
The source made the active and inactive calls. No stated cut-off is given here; in the data, active = GI50 up to about 1.1 µM and inactive = higher.
Consider the following compounds and their measured GI50 readings.

[
  {
    "compound": "Cc1ccc(O)c(C(c2cc(C)ccc2O)c2cc([N+](=O)[O-])ccc2O)c1",
    "GI50": "24.3 µM (inactive)"
  },
  {
    "compound": "Clc1ccc(-c2cc3nc4ccccc4nc3o2)cc1",
    "GI50": "> 100 µM (inactive)"
  },
  {
    "compound": "COC(=O)C(=O)C1(CCC(C)=O)c2ccccc2-c2ccccc21",
    "GI50": "> 100 µM (inactive)"
  },
  {
    "compound": "CCOC(=O)NC(=O)c1cn(CCCOC(=O)NCCCCCCNC(=O)OCCCn2c(=O)c(C(=O)NC(=O)OCC)cn(C)c2=O)c(=O)n(C)c1=O",
    "GI50": "> 100 µM (inactive)"
  },
  {
    "compound": "O=C(c1cc(O)ccc1O)c1ccccc1C(Cl)(Cl)Cl",
    "GI50": "> 100 µM (inactive)"
  },
  {
    "compound": "Cc1cccc(/C(Br)=C2/OC(=O)c3ccccc32)c1",
    "GI50": "> 100 µM (inactive)"
  },
  {
    "compound": "O=C1C2Nc3ccccc3SC2C(=O)N1c1ccc(Br)cc1 (configuration not stated)",
    "GI50": "45 µM (inactive)"
  }
]

====

System: SN12C
experimental.protocol: NCI tumour cell line growth inhibition, 48 h
Active and inactive are the calls of the source. Rule as the data show it: active = GI50 up to about 1.1 µM and inactive = higher.
Possible outcomes: True = active, False = inactive

[
  {
    "compound": "CCOC(=O)NC(=O)c1cn(C2CCCCC2)c(=O)[nH]c1=O",
    "assigned.label": "False"
  },
  {
    "compound": "O=[N+]([O-])/C(C(Cl)=C(Cl)Cl)=C(/Cl)SCc1ccccc1",
    "assigned.label": "False"
  },
  {
    "compound": "N#CC(/C(=N\\NC(N)=S)C(=O)NC1C2CC3CC(C2)CC1C3)c1ccc(Cl)cc1 (centres undefined)",
    "assigned.label": "False"
  },
  {
    "compound": "Cc1cc2c(=O)cc(-c3ccc(C(=O)O)cc3)oc2c(C(N)=O)c1C",
    "assigned.label": "False"
  },
  {
    "compound": "Cc1cc(Cl)ccc1N1C(=O)C(=O)C(c2nc3ccccc3o2)C(=O)C1=O",
    "assigned.label": "False"
  },
  {
    "compound": "COc1cc(O)c2c(c1)O[C@@H]1OCC[C@H]21",
    "assigned.label": "False"
  },
  {
    "compound": "COc1cc(-c2oc3c(OC)c(O)c(OC)c(O)c3c(=O)c2OC)cc(OC)c1OC",
    "assigned.label": "False"
  },
  {
    "compound": "COc1cccc2c(Nc3ccc(S(=O)(=O)N=C(N)N)cc3)c3ccc([N+](=O)[O-])cc3nc12",
    "assigned.label": "False"
  },
  {
    "compound": "Cc1ccc(NC(=O)c2cccc([N+](=O)[O-])c2O)c([N+](=O)[O-])c1",
    "assigned.label": "False"
  },
  {
    "compound": "CN(CC(=O)O)S(=O)(=O)c1ccc(F)cc1",
    "assigned.label": "False"
  },
  {
    "compound": "COc1cccc(NC(=O)CC(=O)N2N=C(N(CCC#N)c3ccc(Cl)cc3)CC2c2ccccc2)c1 (centres undefined)",
    "assigned.label": "False"
  },
  {
    "compound": "COc1ccc(N(C(=O)NCCO)c2ccccc2)cc1",
    "assigned.label": "False"
  },
  {
    "compound": "COc1cc(C(C)c2cc3c(cc2OCCO)OCO3)cc(OC)c1OC (centres undefined)",
    "assigned.label": "False"
  },
  {
    "compound": "COc1cc(/C=C(\\C#N)C(=O)c2ccccc2)cc(OC)c1OC",
    "assigned.label": "False"
  },
  {
    "compound": "CN1CCN(c2ncc3c(n2)sc2c(=O)n(-c4ccccc4)cnc23)CC1",
    "assigned.label": "False"
  },
  {
    "compound": "COC(=O)C1CSC(c2csc(CCN)n2)=N1 (centres undefined)",
    "assigned.label": "False"
  },
  {
    "compound": "Clc1cc2nc[nH]c2cc1Cl",
    "assigned.label": "False"
  },
  {
    "compound": "Sc1nn2c(COc3cc(Cl)c(OCc4nnc5sc(S)nn45)cc3Cl)nnc2s1",
    "assigned.label": "False"
  },
  {
    "compound": "COC(=O)c1sc2nc(Nc3ccccc3)/c(=N\\c3ccccc3)sc2c1C",
    "assigned.label": "False"
  },
  {
    "compound": "CC(=O)/N=C1/N(/C=C2\\C(=O)Oc3ccccc3C2=O)C(=O)/C(=C/c2ccc(Cl)cc2Cl)N1C",
    "assigned.label": "False"
  },
  {
    "compound": "COc1ccc2[nH]c3c(C)c4ccnc(NCCCN(C)CCCN)c4c(C)c3c2c1",
    "assigned.label": "True"
  },
  {
    "compound": "Cc1cccc(C)c1NC(=O)C(=O)C1C(=O)NC(=O)NC1=O",
    "assigned.label": "False"
  },
  {
    "compound": "Cc1ccc(OC2CC(n3cnc4ncnc(Cl)c43)OC2Oc2ccc(C)cc2)cc1 (centres undefined)",
    "assigned.label": "False"
  },
  {
    "compound": "O=C1CSC2=NC3=C(CSC/C3=C\\c3ccccc3)C(c3ccccc3)N12 (centres undefined)",
    "assigned.label": "False"
  }
]
